- target: T1, hTFIIH p62 PH-D (pleckstrin homology domain of the p62 subunit of human TFIIH) (human, UniProt P32780 1-108)
- T1 sequence: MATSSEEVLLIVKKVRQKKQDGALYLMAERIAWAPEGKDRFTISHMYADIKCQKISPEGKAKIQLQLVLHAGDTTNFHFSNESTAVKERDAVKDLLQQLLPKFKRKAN
- assayNotes: NMR titration
pKd: −log10 of the molar value.
endpoint: pKd

(I) EEEDDEFEEVADDP [hTFIIEα AC-D(381−394) peptide (N-terminal tail only)]
(II) hTFIIEα(351−439) (longer construct with STDE and acidic regions, NMR titration) (domain or fragment) GSDSESETSESDDDSPPRPAAVAVHKREEDEEEDDEFEEVADDPIVMVAGRPFSYSEVSQRPELVAQMTPEEKEAYIAMGQRMFEDLFE
Q: Of I and II , which shows the smaller pKd value? Pick one and reply with its label.
Result: I
(I: 5.67, II: 6.40)

Entry source: paper PMC2275666
